# System: Nucleic Acid
# procedure text: The compound was tested in vitro for its ability to initiate DNA replication
# Format: nucleic-acid assay
# experimental conditions: Homo sapiens
Listing of recorded DNA by entry.

>  <smiles entry>
C[C@]12CC[C@@H]3c4ccc(O)cc4CC[C@H]3[C@@H]1CCC2=O

>  <study system>
Nucleic Acid

>  <DNA [%]>
108

$$$$
>  <smiles entry>
COc1ccc2c(c1OC)CC[C@@H]1[C@@H]2CC[C@]2(C)C(=O)CC[C@@H]12

>  <study system>
Nucleic Acid

>  <DNA [%]>
63

$$$$
>  <smiles entry>
C[C@]12CC[C@@H]3c4cc(O)c(O)cc4CC[C@H]3[C@@H]1CCC2=O

>  <study system>
Nucleic Acid

>  <DNA [%]>
92

$$$$
